Answer each item with its documented normalized growth.
- Method Description: chemical genetic growth profiling, strain panel (AID 1159580);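 note: tested at 20 µM; growth read once vehicle control cultures reached saturation at 30 °C; 1 = growth at the plate median or of vehicle wells; lower values mean less growth of the strain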
- Experimental Conditions: S. cerevisiae deletion strains, growth OD, locus YLL041C, strain sdh2, active compounds read low
The whole screen tested about 5,500 compounds, of which about 2,000 (36%) were called active. Not shown: some 18% with an inconclusive outcome. Some of the results follow.
Answer with the value's number alone.

I have this compound here, CC(C)=CCC/C(C)=C/CC/C(C)=C/CC/C(C)=C/CC/C(C)=C/CC/C(C)=C/CC/C(C)=C/CC/C(C)=C/CC/C(C)=C/CO , and I need its recorded normalized growth.
0.996

# get_value(readout='normalized growth', item= Nc1ncn([C@@H]2O[C@H](CO)[C@@H](O)[C@H]2O)c(=O)n1 )
0.989

What does the data say about its normalized growth? Entry: CC(=O)O[C@@H]1C[C@@]2(C)[C@H](c3ccoc3)C[C@H]3O[C@]32[C@]2(C)C(=O)C(O)=C3C(C)(C)C(=O)C=C[C@]3(C)C12 (some centres undefined)
0.976

Endpoint output: normalized growth of CCOP(=S)(OCC)SCn1c(=O)oc2cc(Cl)ccc21 . Value?
0.954
